- Tested on: M14
- assay-explanation: In vitro cytotoxic activity against Melanoma (M14) cell line at a concentration of 10e-5 M
- Type: functional, Homo sapiens
metric-name: Growth (%)
Just the number please, in %, no unit attached.

>>> val("CC(=O)O[C@@H]1CC2C(C)(C)C(=O)C=C[C@]2(C)C2CC[C@]3(C)C(=CC[C@H]3C3=CC(=O)OC3O)[C@@]21C.CC(=O)O[C@@H]1CC2C(C)(C)C(=O)C=C[C@]2(C)C2CC[C@]3(C)C(=CC[C@H]3C3=CC(O)OC3=O)[C@@]21C (some centres not stated)")
71.3
>>> val("CC1(C)C(=O)C=C[C@@]2(C)C1CC(=O)[C@@]1(C)C3=CC[C@@H](c4ccoc4)[C@]3(C)CCC12 (some centres not stated)")
7
>>> val("CC(C)C(=O)O[C@@H]1CC2C(C)(C)C(=O)C=C[C@]2(C)C2CC[C@]3(C)C(=CC[C@H]3c3ccoc3)[C@@]21C (some centres not stated)")
95
>>> val("CCOC1=C[C@@]2(C)C(C[C@@H](OC(C)=O)[C@@]3(C)C4=CC[C@@H](c5ccoc5)[C@]4(C)CCC23)C(C)(C)C1=O (some centres not stated)")
40
>>> val("CC1(C)C(=O)C=C[C@@]2(C)C1C[C@@H](O)[C@@]1(C)C3=CC[C@@H](c4ccoc4)[C@]3(C)CCC21 (some centres not stated)")
15.8

Item: CC1(C)C(=O)C=C[C@@]2(C)C1C[C@@H](OC(=O)CCl)[C@@]1(C)C3=CC[C@@H](c4ccoc4)[C@]3(C)CCC21 (some centres not stated) Test system: M14 Read-out: Growth Value: ?
-3

// map CCN(CC)CCO/N=C1\C=C[C@@]2(C)C(C[C@@H](OC(C)=O)[C@@]3(C)C4=CC[C@@H](c5ccoc5)[C@]4(C)CCC23)C1(C)C (some centres not stated) to recorded Growth (system: M14)
35
